# System: V79
# measurement-notes: Mammalian cell cytotoxicity test in chinese hamster V79 cells (clonogenic cytotoxicity)
# Assay type: functional, cell-based
# test-parameters: Cricetulus griseus, V79; read-out: IC50
readout-kind: IC50

Consider the following items and state reported IC50 for each.
1. CC1CN(c2c(F)cc3c(=O)c(C(=O)O)cn(-c4ccc(F)cc4F)c3c2C(F)(F)F)CCN1 (stereo not drawn)
2. NC1CCCN(c2c(F)cc3c(=O)c(C(=O)O)cn(C4CC4)c3c2C(F)(F)F)C1 (stereo not drawn)
3. CCNCC1CCN(c2c(F)cc3c(=O)c(C(=O)O)cn(C4CC4)c3c2Cl)C1 (stereo in doubt; 37a)

> 500 µg/mL
> 500 µg/mL
< 11 µg/mL

###

# Test system: V79
# measurement-notes: Mammalian cell cytotoxicity test in chinese hamster V79 cells (clonogenic cytotoxicity)
# Assay type: functional, cell-based
# test-parameters: Cricetulus griseus, V79; read-out: IC50
With a cut-off of 100 µg/mL, any IC50 strictly below it is called T; any IC50 meeting it or above is called F.

Here's what some known entries look like.
>  <molecule>
CN1CCN(c2c(F)cc3c(=O)c(C(=O)O)cn(CCF)c3c2F)CC1 [FLEROXACIN]

>  <label>
F

$$$$
>  <molecule>
CCNCC1CCN(c2cc3c(cc2F)c(=O)c(C(=O)O)cn3NC)C1 (centres undefined)

>  <label>
F

$$$$

For this molecule, is IC50 lower than 100 µg/mL? CC1CN(c2c(F)cc3c(=O)c(C(=O)O)cn(C4CC4)c3c2C(F)(F)F)CC(C)N1 (centres undefined)
F

###

# Tested on: V79
# measurement-notes: Mammalian cell cytotoxicity test in chinese hamster V79 cells (clonogenic cytotoxicity)
# Type: functional, cell-based
# test-parameters: Cricetulus griseus, V79; read-out: IC50
Would you kindly list log10 IC50 for each of these compounds?
Hi team, quick reminder: these entries are log10 of IC50 (µg/mL).

>  <compound>
COc1c(N2CCC(C)(N)C2)c(F)cc2c(=O)c(C(=O)O)cn(-c3ccc(F)cc3F)c12 (stereo unspecified)

>  <readout-kind>
log10 IC50

>  <readout-number>
2.40

$$$$
>  <compound>
CNCC1(C)CCN(c2c(F)cc3c(=O)c(C(=O)O)cn(C4CC4)c3c2C(F)(F)F)C1 (stereo unspecified)

>  <readout-kind>
log10 IC50

>  <readout-number>
2.36

$$$$
>  <compound>
COc1c(N2CCC(N)C2)c(F)cc2c(=O)c(C(=O)O)cn(C3CC3)c12 (stereo in doubt; 35a)

>  <readout-kind>
log10 IC50

>  <readout-number>
1.65

$$$$
>  <compound>
O=C(O)c1cn(C2CC2)c2c(C(F)(F)F)c(N3CCNCC3)c(F)cc2c1=O

>  <readout-kind>
log10 IC50

>  <readout-number>
3.22

$$$$
>  <compound>
CCNCC1CCN(c2c(F)cc3c(=O)c(C(=O)O)cn(-c4ccc(F)cc4F)c3c2Cl)C1 (stereo unspecified)

>  <readout-kind>
log10 IC50

>  <readout-number>
2.11

$$$$

Hey, can you go through the list below and give me log10 IC50 for every item?
1. NC1CCCN(c2c(F)cc3c(=O)c(C(=O)O)cn(C4CC4)c3c2F)C1 (stereo unspecified)
2. Cc1c(F)c(N2CCC(N)C2)cc2c1c(=O)c(C(=O)O)cn2C1CC1 (stereo unspecified)
3. NC1CCN(c2c(F)cc3c(=O)c(C(=O)O)cn(-c4ccc(F)cc4F)c3c2C(F)(F)F)C1 (stereo unspecified)
4. CNCC1(C)CCN(c2c(F)cc3c(=O)c(C(=O)O)cn(C4CC4)c3c2Cl)C1 (stereo unspecified)
5. Cc1c(F)c(N2CCC(N)C2)c(F)c2c1c(=O)c(C(=O)O)cn2C1CC1 (stereo unspecified)

1.72
1.15
2.00
1.36
1.04

Field: log10 IC50. Fill in for each record below.
1. NC1CCN(c2cc3c(c(O)c2F)c(=O)c(C(=O)O)cn3C2CC2)C1 (stereo unspecified)
2. O=C(O)c1cn(C2CC2)c2nc(N3CCCC3)c(F)cc2c1=O
3. COc1c(N2CCCC2)c(F)cc2c(=O)c(C(=O)O)cn(C3CC3)c12
4. CNCC1(C)CCN(c2nc3c(cc2F)c(=O)c(C(=O)O)cn3C2CC2)C1 (stereo unspecified)
5. NC1CCN(c2c(F)cc3c(=O)c(C(=O)O)cn(C4CC4)c3c2F)CC1
6. CCNCC1CCN(c2c(F)cc3c(=O)c(C(=O)O)cn(C4CC4)c3c2N)C1 (stereo unspecified)
7. CCNCC1CCN(c2c(F)c(NC)c3c(=O)c(C(=O)O)cn(C4CC4)c3c2F)C1 (stereo unspecified)
8. CCNCC1CCN(c2c(F)cc3c(=O)c(C(=O)O)cn(C4CC4)c3c2OC)C1 (stereo in doubt; 26d)

1: 1.86; 2: 1.76; 3: 2.18; 4: 1.76; 5: 1.36; 6: 2.46; 7: 1.72; 8: 1.34

Provide the reported log10 IC50 of each entry below, same order.
1. CSc1c(F)c(N2CCC(N)C2)cc2c1c(=O)c(C(=O)O)cn2C1CC1 (stereo unspecified)
2. O=C(O)c1cn(C2CC2)c2c(F)c(N3CCCC3)c(F)cc2c1=O
3. CCNCC1CCN(c2c(F)cc3c(=O)c(C(=O)O)cn(CC(F)(F)F)c3c2F)C1 (stereo unspecified)
4. CCc1c(F)c(N2CCC(N)C2)cc2c1c(=O)c(C(=O)O)cn2C1CC1 (stereo unspecified)
5. CC1CN(c2c(F)cc3c(=O)c(C(=O)O)cn(C4CC4)c3c2C(F)(F)F)CCN1 (stereo unspecified)
6. COc1c(N2CCC(C)(N)C2)c(F)cc2c(=O)c(C(=O)O)cn(C3CC3)c12 (stereo unspecified)

[1.96, 2.08, 1.76, 1.66, 2.34, 1.58]

Consider the following items and state reported log10 IC50 for each.
1. CCNCC1CCN(c2nc3c(cc2F)c(=O)c(C(=O)O)cn3C2CC2)C1 (stereo unspecified)
2. O=C(O)c1cn(C2CC2)c2cc(N3CCCC3)c(F)cc2c1=O

2.20
1.58
